- System: Fibroblast
- Test protocol: Multiplex assay against human fibroblast
- Assay type: toxicity, cell-based
- Test conditions: 48 h, 10 µM, compound concentration 10 uM, replicate 1
Measurement kind: Population Mitochondria Different-Phenotype (%)
The answer should read as a number with its unit following.

Illustrative cases are given below, each with its answer.
C[C@H](NC(=O)CNC(=O)c1cccc(Cl)c1)c1ccccc1
15%
COc1cc(OC2CCN(C(C)=O)CC2)ccc1C(=O)N1CCC(N2C(=O)OCc3ccccc32)CC1
13%

Record summary for COc1ccc2[nH]c(I)c(CCNC(C)=O)c2c1 [IODOMELATONIN] : reported Population Mitochondria Different-Phenotype (%) = 1%

Form field Population Mitochondria Different-Phenotype (%), entry CCC(=O)OCC(=O)[C@@]1(OC(=O)CC)[C@@H](C)C[C@H]2[C@@H]3CCC4=CC(=O)C=C[C@]4(C)[C@@]3(Cl)[C@@H](O)C[C@@]21C [BECLOMETHASONE DIPROPIONATE] : 47%

----------
Items are presented alongside their recorded Population Mitotic Cells (%).
- System: HEK-293T
- Test protocol: Multiplex assay against HEK293T
- Type: toxicity, cell-based
- Test conditions: human, 48 h, 10 µM, compound concentration 10 uM, replicate 1
Non-standard residues stand in square brackets, D forms with d. Residues, ends and D or L forms follow the SMILES beside them.
Returns: string containing the numeric result and its unit.

These recorded examples may help you get a feel for the data.
CN1C[C@H](C(=O)N[C@]2(C)O[C@@]3(O)[C@@H]4CCCN4C(=O)[C@H](Cc4ccccc4)N3C2=O)C[C@@H]2c3cccc4[nH]cc(c34)C[C@H]21.CS(=O)(=O)O [DIHYDROERGOTAMINE MESYLATE]
77%
C=CCN1C[C@H](C(=O)N(CCCN(C)C)C(=O)NCC)C[C@@H]2c3cccc4[nH]cc(c34)C[C@H]21 [CABERGOLINE]
73%
CCC(=O)OCC(=O)[C@@]1(OC(=O)CC)[C@@H](C)C[C@H]2[C@@H]3CCC4=CC(=O)C=C[C@]4(C)[C@@]3(Cl)[C@@H](O)C[C@@]21C [BECLOMETHASONE DIPROPIONATE]
32%
Cc1c(Cc2ccc3ccccc3n2)c2cc(F)ccc2n1CC(=O)O [TIMAPIPRANT]
66%
CCn1c(-c2nc3cc(C(=O)N4CCCC(N)C4)ccc3n2C)cc2ccccc21.Cl (stereo not given)
49%

Population Mitotic Cells (%) for HEK-293T with input COc1ccc2[nH]c(I)c(CCNC(C)=O)c2c1 [IODOMELATONIN] equals 76%

Result for CC(C)C[C@@H]1NC(=O)[C@@H](C(C)C)NC(=O)[C@@H]2CCCN2C(=O)[C@@H](CC(=O)O)NC(=O)[C@@H](Cc2c[nH]c3ccccc23)NC1=O [BQ-123] (cyclo(L[dW][dD]P[dV])) , tested on HEK-293T, Population Mitotic Cells (%): 75%

The reported HEK-293T Population Mitotic Cells (%) of OCCCNc1cc(-c2ccnc(Nc3cccc(Cl)c3)n2)ccn1 is 28%

So the reported Population Mitotic Cells (%) for COc1cc2nc(N3CCN(C(=O)c4ccco4)CC3)nc(N)c2cc1OC.Cl [PRAZOSIN HYDROCHLORIDE] , on HEK-293T, turned out to be 66%

Summary line: O=C(NCCNCC(O)COc1ccc(O)cc1)N1CCOCC1.O=C(NCCNCC(O)COc1ccc(O)cc1)N1CCOCC1.O=C(O)/C=C/C(=O)O (stereo not given) [XAMOTEROL FUMARATE] , HEK-293T, reported Population Mitotic Cells (%) = 82%

Population Mitotic Cells (%) value, target or system HEK-293T, for Cc1sc2c(c1C)C(c1ccc(Cl)cc1)=N[C@H](CC(=O)OC(C)(C)C)c1nnc(C)n1-2 : 68%

Reported HEK-293T Population Mitotic Cells (%) for item CSc1nc(NC2CCCC2)c([N+](=O)[O-])c(NC2CCCC2)n1 [GS-39783] was 82%

----------
Entries and their Population Membrane Permeable-Phenotype (%) values follow.
- Tested on: Fibroblast
- Test protocol: Multiplex assay against human fibroblast
- Assay type: toxicity, cell-based
- Test conditions: 48 h, 10 µM, compound concentration 10 uM, replicate 1
Quick reminder: number only, in %, skip the unit.

Known Population Membrane Permeable-Phenotype (%) results, listed for orientation:
C[C@H](NC(=O)CNC(=O)c1cccc(Cl)c1)c1ccccc1
1
COCCn1c(C)c(C)s/c1=N\C(=O)C1C(C)(C)C1(C)C
0
C[C@@H]1CC(=O)Nc2cccc(-c3ccc4c(c3)c(-c3cnn(C)c3)nn4C)c2N1
0
COc1cc2nc(N3CCN(C(=O)c4ccco4)CC3)nc(N)c2cc1OC.Cl [PRAZOSIN HYDROCHLORIDE]
0
Cc1cc(O)c(-c2ccc([C@@H](C)CN(C)C)cc2)c2c1[nH]c(=O)c1sccc12
0
COc1cc(OC2CCN(C(C)=O)CC2)ccc1C(=O)N1CCC(N2C(=O)OCc3ccccc32)CC1
0

Entry CN1CCN2c3ccccc3Cc3ccccc3C2C1.Cl (stereo not drawn) [MIANSERIN HYDROCHLORIDE] , tested on Fibroblast, has a reported Population Membrane Permeable-Phenotype (%) of 0

Summary: N[C@](CC1c2ccccc2Oc2ccccc21)(C(=O)O)[C@H]1C[C@@H]1C(=O)O , Fibroblast, Population Membrane Permeable-Phenotype (%) = 1

Note to self: Population Membrane Permeable-Phenotype (%) of COc1cc(C(=O)N2CC[C@@H](O)[C@@H](N)C2)cc2nc(-c3cc4ccccc4n3CC3CC3)n(C)c12.Cl with Fibroblast was 0

Value sought: Population Membrane Permeable-Phenotype (%), system Fibroblast, item Cc1cc(NC(=O)NCCN2CCC(O)(Cc3ccccc3)CC2)c2ccccc2n1 . Result: 0

Form field Population Membrane Permeable-Phenotype (%) for item CN(C)C(=O)Cn1cc(-c2ccc(-c3nnc4ccccn34)cc2)cn1 on Fibroblast: 0

Lab entry: Fibroblast assay, molecule O=C(Nc1cc(-c2ccccc2)nn1-c1ccccc1F)c1ccc([N+](=O)[O-])cc1 , Population Membrane Permeable-Phenotype (%) = 3

Readout Population Membrane Permeable-Phenotype (%) for COc1ccc2[nH]c(I)c(CCNC(C)=O)c2c1 , test system Fibroblast, was 1

Record Cl.Cl.OCCOCCN1CCN(C(c2ccccc2)c2ccc(Cl)cc2)CC1 (stereo not drawn) [HYDROXYZINE HYDROCHLORIDE] has Fibroblast Population Membrane Permeable-Phenotype (%) equal to 0

Measured Population Membrane Permeable-Phenotype (%) for this entry CN1CCC(C(=O)c2cccc(NC(=O)c3c(F)cc(F)cc3F)n2)CC1 on Fibroblast: 0

----------
- System: HEK-293T
- Test protocol: Multiplex assay against HEK293T
- Type: toxicity, cell-based
- Test conditions: human, 12 h, 10 µM, compound concentration 10 uM, replicate 1
List of Total Cell Count values.
// response body must contain only the number

The cases that follow already have their Total Cell Count on record.
COc1cc(C(=O)N2CC[C@@H](O)[C@@H](N)C2)cc2nc(-c3cc4ccccc4n3CC3CC3)n(C)c12.Cl
260
Cc1sc2c(c1C)C(c1ccc(Cl)cc1)=N[C@H](CC(=O)OC(C)(C)C)c1nnc(C)n1-2
395

Please fill in: Total Cell Count reported for CC(C)C[C@H](CO)Nc1nc(S[C@@H](C)c2ccccc2)nc2nc(N)sc12 [AZD-8797] = 279

Lab book: Total Cell Count of CN(C)C/C=C/C(=O)Nc1ccc(C(=O)N2CCCC(Nc3ncc(Cl)c(-c4c[nH]c5ccccc45)n3)C2)cc1 (centres undefined) noted as 269

----------
- System: U2OS
- Test protocol: Multiplex assay against U2OS
- Type: toxicity, cell-based
- Test conditions: human, 48 h, 1 µM, compound concentration 1 uM, replicate 2
Label No if Population Tubulin-Different-Phenotype (%) falls below 4%; label Yes in every other case.

Record excerpt, results attached:
COCCn1c(C)c(C)s/c1=N\C(=O)C1C(C)(C)C1(C)C
Yes
CCC(=O)OCC(=O)[C@@]1(OC(=O)CC)[C@@H](C)C[C@H]2[C@@H]3CCC4=CC(=O)C=C[C@]4(C)[C@@]3(Cl)[C@@H](O)C[C@@]21C [BECLOMETHASONE DIPROPIONATE]
No
Cc1cc(-c2ccc3c(c2)CC[C@H]3N2CC3(CCN(C(=O)Cc4cn5cc(C)sc5n4)CC3)C2)ncn1
No
C[C@H](NC(=O)CNC(=O)c1cccc(Cl)c1)c1ccccc1
No
C[C@@H]1CC(=O)Nc2cccc(-c3ccc4c(c3)c(-c3cnn(C)c3)nn4C)c2N1
No
O=C(O)CCC/C=C\CC1C(O)CC(O)C1/C=C/C(O)COc1cccc(Cl)c1 (centres undefined)
No
O=c1nc2[nH]c3ccccc3nc-2c(=O)[nH]1
No
CSc1nc(NC2CCCC2)c([N+](=O)[O-])c(NC2CCCC2)n1
No

Ask: Assess whether reported Population Tubulin-Different-Phenotype (%) for S=C(NCCCc1c[nH]cn1)NCCCN(Cc1ccc(Cl)c(Cl)c1)c1ccc(Br)cn1 sits at 4% or higher.
Result: No
